biological target: Prostaglandin G/H synthase 1 (Homo sapiens); assay: Inhibitory concentration against prostaglandin G/H synthase 1 in human whole blood
Sequence (P23219 whole entry): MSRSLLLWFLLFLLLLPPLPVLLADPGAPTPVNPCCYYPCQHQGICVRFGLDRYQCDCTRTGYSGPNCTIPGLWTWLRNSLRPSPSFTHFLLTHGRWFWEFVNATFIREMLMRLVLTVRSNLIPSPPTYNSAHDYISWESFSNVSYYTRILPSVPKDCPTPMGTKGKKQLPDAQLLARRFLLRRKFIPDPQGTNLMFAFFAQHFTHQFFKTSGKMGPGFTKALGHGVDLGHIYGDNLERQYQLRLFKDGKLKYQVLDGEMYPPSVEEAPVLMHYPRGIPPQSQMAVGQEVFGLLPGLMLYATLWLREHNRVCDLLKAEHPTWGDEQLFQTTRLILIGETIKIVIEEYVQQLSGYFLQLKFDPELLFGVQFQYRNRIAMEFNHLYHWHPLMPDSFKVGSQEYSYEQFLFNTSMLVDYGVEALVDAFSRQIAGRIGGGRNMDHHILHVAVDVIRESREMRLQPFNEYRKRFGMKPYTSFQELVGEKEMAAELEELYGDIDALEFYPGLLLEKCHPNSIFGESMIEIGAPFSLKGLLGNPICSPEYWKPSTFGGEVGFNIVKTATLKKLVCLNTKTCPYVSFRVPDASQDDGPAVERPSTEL
outcome.measure: pIC50
Answers are plain numbers, as −log10 of the molar value.

Recorded pIC50 (compound CS(=O)(=O)c1ccc(C2=C(c3cccc(F)c3)C(=O)OC2)cc1 ): 4.19

---

target: Prostaglandin G/H synthase 2 (Homo sapiens); experiment: Inhibitory concentration against prostaglandin G/H synthase 2 in human whole blood
Sequence (P35354 whole entry): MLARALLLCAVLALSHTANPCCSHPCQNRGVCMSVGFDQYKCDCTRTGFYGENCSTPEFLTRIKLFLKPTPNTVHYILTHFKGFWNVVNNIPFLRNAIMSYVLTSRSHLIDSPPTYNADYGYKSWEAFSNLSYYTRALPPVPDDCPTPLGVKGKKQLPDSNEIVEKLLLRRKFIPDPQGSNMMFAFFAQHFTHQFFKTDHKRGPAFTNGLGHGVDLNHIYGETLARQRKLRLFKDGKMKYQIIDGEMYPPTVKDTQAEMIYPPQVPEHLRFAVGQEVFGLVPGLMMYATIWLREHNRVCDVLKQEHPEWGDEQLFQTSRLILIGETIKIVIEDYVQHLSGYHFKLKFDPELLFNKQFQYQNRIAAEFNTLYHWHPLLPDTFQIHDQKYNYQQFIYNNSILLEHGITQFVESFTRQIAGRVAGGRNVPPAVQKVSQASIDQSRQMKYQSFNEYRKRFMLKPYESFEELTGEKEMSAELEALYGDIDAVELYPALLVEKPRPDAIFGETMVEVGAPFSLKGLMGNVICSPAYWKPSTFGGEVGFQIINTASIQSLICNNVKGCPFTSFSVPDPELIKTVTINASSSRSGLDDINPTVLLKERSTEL
outcome.measure: pIC50
One number for each entry, as −log10 of the molar value.

// pIC50 lookup, compound = CS(=O)(=O)c1ccc(C2=C(c3cccc(F)c3)C(=O)OC2)cc1 , result: 5.89
